# test-target: mouse alkaline ceramidase 1 (maCER1) (Mus musculus)
# Construct: The ORF of the mouse alkaline ceramidase was amplified from the mouse liver cDNA library
# Sequence (Q8R4X1 1-273): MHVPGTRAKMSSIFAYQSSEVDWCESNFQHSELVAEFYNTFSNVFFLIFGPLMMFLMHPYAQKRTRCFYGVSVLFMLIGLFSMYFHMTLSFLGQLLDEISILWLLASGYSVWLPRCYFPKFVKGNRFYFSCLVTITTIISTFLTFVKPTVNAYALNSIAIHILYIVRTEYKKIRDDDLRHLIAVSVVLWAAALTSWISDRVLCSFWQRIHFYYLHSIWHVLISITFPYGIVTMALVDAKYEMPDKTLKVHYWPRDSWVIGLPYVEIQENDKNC
# experiment-description: Ceramidase activity assay with maCER1-containing yeast microsomes (release of NBD-fatty acid from D-e-C12-NBD-ceramide)
# test-parameters: maCER1 microsomes, substrate D-e-C12-NBD-ceramide (200 μM), FIG. 4C; read-out: IC50 for the inhibition of ceramidase activity
measurement-name: IC50

Ask | Look at this compound and give its reported IC50. CCCCCCCCCCCCC/C=C/[C@@H](O)[C@@H](N)CO
Reply | ~80 µM
